System: PC-3 prostate
Assay Explanation: NCI tumour cell line growth inhibition, 48 h
Please provide measured TGI for the entries that follow.

Determine reported TGI for `Cc1cccc2c1NC(=O)[C@@H](NC(=O)[C@H](CCC(F)(F)F)[C@H](CCC(F)(F)F)C(N)=O)N=C2c1cccc(F)c1` ; test system: PC-3 prostate.
> 100 µM

Determine reported TGI for `C=CC(C)(C)c1c(OC)oc2ccc(OC)c(C)c2c1=O` ; test system: PC-3 prostate.
> 100 µM

Determine reported TGI for CC12OC(C(=O)C13CC3)C1C(=O)c3cccc(O)c3C(=O)C12 (stereo not given) ; test system: PC-3 prostate.
34.3 µM

Determine reported TGI for `O=C(NCCNc1nccc(-c2c(-c3ccc(F)cc3)nc3sccn23)n1)Nc1cccc(C(F)(F)F)c1` ; test system: PC-3 prostate.
42.3 µM

Determine reported TGI for CC(C)C1=CC23CCC4C(C)(C(=O)O)CCCC4(C)C2CC1C1C(=O)N(c2ccc(N4C(=O)C5C6CC7C8(C)CCCC(C)(C(=O)O)C8CCC7(C=C6C(C)C)C5C4=O)cc2)C(=O)C13 (stereo not given) ; test system: PC-3 prostate.
14.1 µM

Sourced from PubChem BioAssay (NCI)
